Measured Quantity: melting point

>>> df
                                   molecule        reading
0  Cc1ccccc1CC(=O)N(Cc1ccccc1)Cc1ccc(-c2ccccc2S(=O)(=O)NC#N)cc1 [Example 561]  108 °C (dec.)
1  N#CNS(=O)(=O)c1ccccc1-c1ccc(CN(Cc2ccccc2)C(=O)Cc2ccccc2OC(F)(F)F)cc1 [Example 563]  125 °C (dec.)
2  N#CNS(=O)(=O)c1ccccc1-c1ccc(CN(Cc2ccccc2)C(=O)Cc2ccccc2C(F)(F)F)cc1 [Example 562]   90 °C (dec.)
3  Cc1ccc(C(=O)N(Cc2ccccc2)Cc2ccc(-c3ccccc3S(=O)(=O)NC#N)cc2)s1 [Example 568]  166 °C (dec.)
4  N#CNS(=O)(=O)c1ccccc1-c1ccc(CN(Cc2ccccc2)C(=O)Cc2ccccc2SC(F)(F)F)cc1 [Example 564]  122 °C (dec.)
5  N#CNS(=O)(=O)c1ccccc1-c1ccc(CN(Cc2ccccc2)C(=O)c2ccccc2C(F)(F)F)cc1 [Example 566]  165 °C (dec.)
6  Cc1ccccc1C(=O)N(Cc1ccccc1)Cc1ccc(-c2ccccc2S(=O)(=O)NC#N)cc1 [Example 565]  173 °C (dec.)
7  N#CNS(=O)(=O)c1ccccc1-c1ccc(CN(Cc2ccccc2)C(=O)c2ccccc2OC(F)(F)F)cc1 [Example 567]  160 °C (dec.)
